# EXPERIMENTAL DETAILS: qHTS for Inhibitors of human tyrosyl-DNA phosphodiesterase 1 (TDP1): qHTS in cells in presence of CPT; further: nearly all actives have a fitted effect of over 55% in size; further: potency means the concentration at half of the fitted maximal effect
# CONDITION DETAILS: chicken DT40 Tdp1-/-;hTDP1 cells + 20 nM CPT, ATP luminescence, 48 h; series mostly up to 46.2 µM
The whole screen tested about 420,000 compounds, of which about 50,000 (12%) were called active. Another 26% or so got no clear call; they are omitted. Only a selection was taken, and actives are over-represented in it overall.
VALUE TYPE: Potency

Worked cases, Potency given:
# MOLECULE, Potency
data = [
    ("CNc1ncnc2ccc(-c3cccc(NS(C)(=O)=O)c3)cc12", "11.6 µM (active)"),
    ("CCCCn1c(SCC(=O)NCC2CCCO2)nc2ccc(N3CCOCC3)cc2c1=O (stereo not drawn)", "inactive"),
    ("Cc1ccc(/C=N/NC(=S)NC2CCCCC2)o1", "14.6 µM (active)"),
    ("Clc1ccc(Nc2ncnc3c2nnn3Cc2ccccc2)cc1", "inactive"),
    ("OC[C@@H]1CN(C2CCCC2)C[C@H](n2cnc3c(NC4CCC4)ncnc32)O1", "inactive"),
]

Consider the molecule "Cc1ccc(NC(=S)NC2CCCC2)cc1" and give its recorded Potency.
inactive

Consider the molecule COCCNC(=O)c1ccc(Cn2c(SCC(=O)NCC3CCCO3)nc3ccc(Br)cc3c2=O)cc1 (stereo not drawn) and give its recorded Potency.
inactive

Consider the molecule "N#Cc1ccc(C(=O)Nc2nc(-c3cccs3)c(C(=O)C(F)(F)F)s2)cc1" and give its recorded Potency.
1.64 µM (active)

Consider the molecule "CCC(C)(C)NC(=O)C1c2ccccc2Oc2ccccc21" and give its recorded Potency.
inactive

Consider the molecule "Cc1nn2c(=O)cc(COC(=O)CNC(=O)c3ccc(F)cc3)nc2s1" and give its recorded Potency.
inactive

Consider the molecule CC1=NNC(=O)C1CCC(=O)N/N=C\c1ccc(Cl)c(Cl)c1 (stereo not drawn) and give its recorded Potency.
inactive

Consider the molecule "CN1CCN(C(=O)C2=C[C@H](c3ccc4c(c3)OCO4)C[C@H](OCc3ccc(CO)cc3)O2)CC1" and give its recorded Potency.
inactive

====

# EXPERIMENTAL DETAILS: qHTS for Inhibitors of human tyrosyl-DNA phosphodiesterase 1 (TDP1): qHTS in cells in presence of CPT; further: nearly all actives have a fitted effect of over 55% in size
# CONDITION DETAILS: chicken DT40 Tdp1-/-;hTDP1 cells + 20 nM CPT, ATP luminescence, 48 h; series mostly up to 46.2 µM
In all, about 420,000 compounds went through this assay and about 50,000 (12%) were called active. Roughly 26% stayed inconclusive and do not appear here. The call rests on the fitted dose curve; in most records, active means well fitted inhibition curve with a large enough effect; inconclusive means small, poorly fitted or top-dose-only effect; inactive means flat fitted curve, though single readings scatter. What follows is part of a selection rich in actives, with near analogues and random picks from the rest.
The reply should name one outcome from class 1 for active, class 0 for inactive

Which outcome was entered for the molecule NC1=NC(c2cc(F)cc(F)c2)n2c(nc3ccccc32)N1 (stereo unspecified) in this test?
class 0

Which outcome was entered for the molecule CN(NC(=O)C1CC(=O)N(c2ccccc2)C1)C1=NS(=O)(=O)c2ccccc21 (stereo unspecified) in this test?
class 0

Which outcome was entered for the molecule "CSc1ncnc2sc(C)c(C)c12" in this test?
class 0

Which outcome was entered for the molecule "CCCNc1ncnc2sc(C)c(C)c12" in this test?
class 1

Which outcome was entered for the molecule "Cc1cccc(-n2nc3c(c2NC(=O)c2cc4ccccc4o2)CS(=O)(=O)C3)c1" in this test?
class 0

Which outcome was entered for the molecule "CCC(=O)N1CCc2cc(Br)cc(S(=O)(=O)CCC(=O)N3CCN(c4ccc(F)cc4)CC3)c21" in this test?
class 1

====

# EXPERIMENTAL DETAILS: qHTS for Inhibitors of human tyrosyl-DNA phosphodiesterase 1 (TDP1): qHTS in cells in presence of CPT; further: nearly all actives have a fitted effect of over 55% in size
# CONDITION DETAILS: chicken DT40 Tdp1-/-;hTDP1 cells + 20 nM CPT, ATP luminescence, 48 h; series mostly up to 46.2 µM
Screen size: about 420,000 compounds; about 50,000 (12%) were called active. Not shown: some 26% with an inconclusive outcome. The call rests on the fitted dose curve; in most records, active means well fitted inhibition curve with a large enough effect; inconclusive means small, poorly fitted or top-dose-only effect; inactive means flat fitted curve, though single readings scatter. What follows is part of a selection rich in actives, with near analogues and random picks from the rest.
The reply should name one outcome from active, inactive

Which outcome was entered for the molecule "NC(=O)C1(Nc2ccccc2Cl)CCCC1" in this test?
inactive

Which outcome was entered for the molecule "O=[N+]([O-])c1ccc(C=Nc2ccc(Cl)cc2Cl)s1" in this test?
active

Which outcome was entered for the molecule "CCOC(=O)CNC(=O)CSc1ncccc1-c1nc2ccccc2[nH]1" in this test?
inactive

====

# EXPERIMENTAL DETAILS: qHTS for Inhibitors of human tyrosyl-DNA phosphodiesterase 1 (TDP1): qHTS in cells in presence of CPT; further: nearly all actives have a fitted effect of over 55% in size
# CONDITION DETAILS: chicken DT40 Tdp1-/-;hTDP1 cells + 20 nM CPT, ATP luminescence, 48 h; series mostly up to 46.2 µM
Out of some 420,000 compounds screened, about 50,000 (12%) were called active. Roughly 26% stayed inconclusive and do not appear here. The call rests on the fitted dose curve; in most records, active means well fitted inhibition curve with a large enough effect; inconclusive means small, poorly fitted or top-dose-only effect; inactive means flat fitted curve, though single readings scatter. The list comes from a sample in which actives are over-represented; it also holds close analogues and randomly drawn compounds.
The reply should name one outcome from T = active, F = inactive

Which outcome was entered for the compound Cc1ccc(S(=O)(=O)N2CC(C)N(S(C)(=O)=O)C2)cc1 (configuration not stated) in this test?
F

Which outcome was entered for the compound "COc1ccc(NC(=O)c2cccc(Cl)c2)c[n+]1[O-]" in this test?
F

Which outcome was entered for the compound "CN(C)CCN=c1cc(-c2ccccc2)oc2ccc(Cl)cc12" in this test?
F

Which outcome was entered for the compound "CC1CCN(C(=S)c2cccc(O)c2)CC1" in this test?
F

Which outcome was entered for the compound "NS(=O)(=O)c1ccc(CCNC(=O)CNC(=O)Cc2ccccc2)cc1" in this test?
F

Which outcome was entered for the compound "O=C(CS(=O)(=O)c1cn(Cc2cccc(F)c2)c2ccccc12)N1CCCCC1" in this test?
F

Which outcome was entered for the compound "Cc1ccc(S(=O)(=O)N2C[C@@H]3CCCC[C@@H]3[C@@H](C)[C@H]2c2cn(Cc3ccccc3)c3ccc(F)cc23)cc1" in this test?
T

Which outcome was entered for the compound "CCCCc1ccc(S(N)(=O)=O)cc1" in this test?
F

Which outcome was entered for the compound "Cc1cc(NS(=O)(=O)c2ccc(NC(=O)c3cccnc3)cc2)nc(C)n1" in this test?
F

Which outcome was entered for the compound CCOc1ccccc1C(=O)Nc1ccc(S(=O)(=O)N2CCCCC2c2cccnc2)cc1 (configuration not stated) in this test?
T

Which outcome was entered for the compound "c1ccc(-c2cc(-c3ccccc3)[nH]n2)cc1" in this test?
F

Which outcome was entered for the compound "COC(=O)N/N=C/c1c[n+]([O-])c2ccccc2[n+]1[O-]" in this test?
F

====

# EXPERIMENTAL DETAILS: qHTS for Inhibitors of human tyrosyl-DNA phosphodiesterase 1 (TDP1): qHTS in cells in presence of CPT; further: nearly all actives have a fitted effect of over 55% in size
# CONDITION DETAILS: chicken DT40 Tdp1-/-;hTDP1 cells + 20 nM CPT, ATP luminescence, 48 h; series mostly up to 46.2 µM
In all, about 420,000 compounds went through this assay and about 50,000 (12%) were called active. About 26% were inconclusive and are not listed. The call rests on the fitted dose curve; in most records, active means well fitted inhibition curve with a large enough effect; inconclusive means small, poorly fitted or top-dose-only effect; inactive means flat fitted curve, though single readings scatter. The sample holds actives, similar compounds and a random draw of the others, so the mix is not that of the screen.
The reply should name one outcome from active, inactive

Which outcome was entered for the molecule "NC(=O)COc1ccc(NC(=O)c2ccccc2-c2ccccc2)cc1" in this test?
inactive

Which outcome was entered for the molecule "CCOc1c(OC)cccc1C(=O)NCC1(c2ccccc2)CCCC1" in this test?
active

Which outcome was entered for the molecule "O=C(O)c1ccc(CSc2nc3cccnc3n2Cc2cccc(F)c2)cc1" in this test?
inactive

Which outcome was entered for the molecule CC1CCCCN1C(=O)CCS(=O)(=O)Cc1ccccc1 (centres undefined) in this test?
inactive

Which outcome was entered for the molecule "COc1cccc(Cn2c(SCc3ccc(C(=O)N4CCC(C)CC4)cc3)nc3ccncc32)c1" in this test?
active

Which outcome was entered for the molecule "COc1ccccc1C(=O)NCCC(=O)NN1C(=O)NC2(CCCCC2)C1=O" in this test?
inactive

Which outcome was entered for the molecule COc1cccc2cc(-c3nc(Cl)c4c5c(sc4n3)CC(C)CC5)c(=O)oc12 (centres undefined) in this test?
inactive

Which outcome was entered for the molecule "CC(C)(C)c1ccc(C(=O)C[n+]2cccc3cc(Cl)ccc32)cc1" in this test?
active

Which outcome was entered for the molecule "Cc1cccc(OCC(=O)N(Cc2ccc(C(C)C)cc2)Cc2ccco2)c1C" in this test?
active

Which outcome was entered for the molecule "COc1ccc(C(=O)NC2CC(C)(C)NC(C)(C)C2)cc1OC" in this test?
inactive

Which outcome was entered for the molecule "CN1OC[C@@H]2CN(C(=O)C(C)(C)C)[C@H](c3ccc(-n4ccnc4)cc3)C[C@@H]21" in this test?
inactive

Which outcome was entered for the molecule "CSc1n[nH]c(=S)n1N" in this test?
inactive

Which outcome was entered for the molecule "Cc1cccc[n+]1CC(=O)c1ccccc1" in this test?
inactive

Which outcome was entered for the molecule "CCc1ccccc1NC(=O)c1cnn(-c2ccc(F)cc2)c1C1CCNCC1" in this test?
inactive
